- measurementProtocol: Chemical stability in phosphate buffered saline pH 7.4
- Assay type: physicochemical
- measurementParameters: percent remaining after 6 h of incubation at 37°C in PBS buffer pH 7.4

| compound | unitsText | %Compd at 6 h, pH 7.4 |
| --- | --- | --- |
| CCCCCCCCCCCCCCCC(=O)NCCOC(=O)[C@@H](N)Cc1c[nH]c2ccccc12.Cl | % | 96 |
| CCCCCCCCCCCCCCCC(=O)N[C@H](C)COC(=O)[C@@H](N)C(C)C.Cl | % | 93 |
| CCCCCCCCCCCCCCCC(=O)NCCOC(=O)NCC(=O)O | % | 101 |
| CCCCCCCCCCCCCCCC(=O)NCCOC(=O)N[C@@H](C)C(=O)O | % | 103 |
| CCCCCCCCCCCCCCCC(=O)NCCO [compound 1, Palmitoylethanolamide, reference compound] | % | 95 |
| CCCCCCCCCCCCCCCC(=O)NCCOC(=O)[C@@H](N)CC(=O)O.Cl | % | 85 |
| CCCCCCCCCCCCCCCC(=O)NCCOC(=O)OCOC(C)=O | % | 86 |
| CCCCCCCCCCCCCCCC(=O)NCCOC(=O)N[C@H](C(=O)O)C(C)C | % | 99 |
| CCCCCCCCCCCCCCCC(=O)N[C@H](C)CO [compound 31, (R)-α-methyl-PEA] | % | 95 |

* * *

- measurementProtocol: Plasma levels after oral administration to Wistar rats
- Type: in vivo, rat
- measurementParameters: male, rat, plasma, po; p.o. 145 mg kg-1, Wistar rats, mean ± SEM, n = 9; read-out: Prodrug Conc in plasma, 480 min
Parameter: concentration at 480 min. Scope: all listed entries.

| molecule | concentration at 480 min [nM] |
| --- | --- |
| CCCCCCCCCCCCCCCC(=O)NCCOC(=O)[C@H](N)C(C)C.Cl [compound 28] | 10.1 |
| CCCCCCCCCCCCCCCC(=O)NCCOC(=O)[C@@H](N)C(C)C.Cl [compound 20] | 9.3 |

* * *

Parameter: AUC(0-t). Scope: all listed entries.
- measurementProtocol: Plasma levels after oral administration to Wistar rats
- Type: in vivo, rat
- measurementParameters: male, Wistar, rat, plasma, po; administered compound, p.o., mean±SEM, n = 9; read-out: AUC0- 480 (converted)
- Protocol: Twenty-seven male Wistar rats (Charles River Laboratories, Italy), 150–250 g in weight, were used in the study. Number of animals was calculated by G-power a priori analysis (α = 0.05 and β = 0.05). Animals were housed in group in policarbonate cages (Tecniplast, Italy) in a conventional facility with controlled temperature 22±1°C, a relative humidity of 55±5%, and a 12 h light/dark cycle (6:00 am to 6:00 pm). […]
attributeMeasured: AUC(0-t) (ng·h/mL)

| compound | attributeMeasured | unitsText | reportedMeasurement |
| --- | --- | --- | --- |
| CCCCCCCCCCCCCCCC(=O)NCCOC(=O)[C@H](N)C(C)C.Cl [compound 28] | AUC(0-t) | ng·h/mL | 231 |
| CCCCCCCCCCCCCCCC(=O)NCCO [compound 1, Palmitoylethanolamide, reference compound] | AUC(0-t) | ng·h/mL | 109 |
| CCCCCCCCCCCCCCCC(=O)NCCOC(=O)[C@@H](N)C(C)C.Cl [compound 20] | AUC(0-t) | ng·h/mL | 129 |

Values compiled from paper PMC4460047.
